Attribution: paper PMC6231190

# System: HeLa cell line with the ubiquitin fusion degradation reporter UbG76V-GFP
# Assay Remarks: UbG76V-GFP accumulation assay
# Measurement Setup: read-out: Ub^G76 V-GFP EC50 (μM), 1 h

[
  {
    "Compound": "Cc1cc(OCc2nnc(SC3CCCC3)n2-c2cccnc2)ccc1-c1ccc(S(C)(=O)=O)cc1 [NMS-873, reference compound]",
    "Result Units": "µM",
    "EC50": 1.4
  }
]

====

Reported half-life at 10 µM values for the following compounds.
# Assay Remarks: Metabolic stability in mouse liver microsomes
# Type: in vitro ADME
# Measurement Setup: pH 7.4, MLM (t1/2, min)

[
  {
    "Compound": "CN1CCN(C2(CNC3CCN(c4cccc(-c5cc6cc(F)ccc6[nH]5)c4)CC3)CCC2)CC1 [Compound 23]",
    "half-life at 10 µM": "> 270 min"
  },
  {
    "Compound": "CC(C)N1CCC(NC2CCN(c3cccc(-c4cc5cc(F)ccc5[nH]4)c3)CC2)CC1 [Compound 17]",
    "half-life at 10 µM": "> 270 min"
  }
]
